Test system: M. aurum
Experiment: Microdilution broth resazurin assay, MIC
Format: cell-based, Mycolicibacterium aurum
attribute_measured: Antimycobacterial Activity MIC M. aurum (µg/mL)

compound_string	experimental_target	bound_operator	reported_measurement
Cc1nc2ccccc2c(=O)n1Cc1ccc(Cl)cc1Cl	M. aurum	≥	250
COc1cccc(Cn2c(C)nc3ccccc3c2=O)c1	M. aurum	=	125
COc1ccc(Cn2c(C)nc3cc(Cl)ccc3c2=O)cc1	M. aurum	=	15.625

====

We begin with a simple list: items and their reported MIC.
Test system: Mtb H37Ra
Assay: Microdilution broth resazurin assay, MIC
Format: cell-based, Mycobacterium tuberculosis
Details: Mycobacterium tuberculosis, H37RA, read-out: Antimycobacterial Activity MIC Mtb H37Ra
attribute_measured: MIC (µg/mL)

compound	attribute_measured	bound_operator	reported_measurement
COc1ccc(Cn2c(C)nc3cc(Cl)ccc3c2=O)cc1	MIC	=	7.81
Cc1ccccc1Cn1c(C)nc2cc(Cl)ccc2c1=O	MIC	≥	250
Cc1nc2cc(Cl)ccc2c(=O)n1Cc1ccc(Cl)c(Cl)c1	MIC	=	15.6
COc1ccc(Cn2c(C)nc3cc(Cl)ccc3c2=O)c(OC)c1	MIC	≥	125
Cc1nc2cc(Cl)ccc2c(=O)n1Cc1ccc2ccccc2c1	MIC	≥	125
CC1Nc2ccccc2C(=O)N1Cc1ccc(Cl)c(Cl)c1 (centres unmarked)	MIC	≥	250
Cc1nc2ccccc2c(=O)n1Cc1ccc2ccccc2c1	MIC	≥	250
Cc1nc2cc(Cl)ccc2c(=O)n1Cc1ccc(C(F)(F)F)cc1	MIC	=	31.2
Cc1nc2cc(Cl)ccc2c(=O)n1Cc1cccc(Cl)c1	MIC	=	15.6
O=C(O)c1cn(C2CC2)c2cc(N3CCNCC3)c(F)cc2c1=O [CIP, ciprofloxacin, reference compound]	MIC	=	0.25
COc1cccc(Cn2c(C)nc3cc(Cl)ccc3c2=O)c1	MIC	=	62.5

====

Test system: M. avium
Assay: Microdilution broth resazurin assay, MIC
Format: cell-based, Mycobacterium avium
Conditions: Mycobacterium avium, read-out: Antimycobacterial Activity MIC M. avium
We begin with a simple list: items and their reported MIC.

compound_string	experimental_target	MIC
Cc1nc2cc(Cl)ccc2c(=O)n1/N=C/c1ccc(O)cc1	M. avium	≥ 62.5 µg/mL
COc1ccc(Cn2c(C)nc3cc(Cl)ccc3c2=O)c(OC)c1	M. avium	≥ 125 µg/mL
Cc1nc2cc(Cl)ccc2c(=O)n1/N=C/c1cccnc1	M. avium	≥ 31.2 µg/mL
Cc1ccccc1/C=N/n1c(C)nc2cc(Cl)ccc2c1=O	M. avium	≥ 62.5 µg/mL
Cc1nc2cc(Cl)ccc2c(=O)n1/N=C/c1ccc([N+](=O)[O-])cc1	M. avium	≥ 31.2 µg/mL
Cc1nc2cc(Cl)ccc2c(=O)n1/N=C/c1ccccc1[N+](=O)[O-]	M. avium	≥ 62.5 µg/mL
COc1cc(/C=N/n2c(C)nc3cc(Cl)ccc3c2=O)ccc1O	M. avium	≥ 62.5 µg/mL
Cc1nc2cc(Cl)ccc2c(=O)n1/N=C/c1ccc(N(C)C)cc1	M. avium	≥ 15.6 µg/mL
Cc1nc2cc(Cl)ccc2c(=O)n1Cc1ccc(O)cc1	M. avium	62.5 µg/mL
Cc1nc2cc(Cl)ccc2c(=O)n1/N=C/c1cccc([N+](=O)[O-])c1	M. avium	≥ 62.5 µg/mL
COc1ccc(/C=N/n2c(C)nc3cc(Cl)ccc3c2=O)cc1	M. avium	≥ 15.6 µg/mL
Cc1nc2cc(Cl)ccc2c(=O)n1/N=C/c1cccc(O)c1	M. avium	≥ 62.5 µg/mL
Cc1nc2cc(Cl)ccc2c(=O)n1/N=C/c1ccc(Cl)cc1	M. avium	≥ 15.6 µg/mL
Cc1nc2cc(Cl)ccc2c(=O)n1/N=C/C=C/c1ccccc1	M. avium	≥ 31.2 µg/mL
Cc1cccc(/C=N/n2c(C)nc3cc(Cl)ccc3c2=O)c1	M. avium	≥ 31.2 µg/mL
Cc1nc2cc(Cl)ccc2c(=O)n1Cc1ccc2ccccc2c1	M. avium	≥ 125 µg/mL
Cc1nc2cc(Cl)ccc2c(=O)n1/N=C/c1cccc(Br)c1	M. avium	≥ 31.2 µg/mL
Cc1nc2cc(Cl)ccc2c(=O)n1/N=C/c1ccccc1Cl	M. avium	≥ 31.2 µg/mL
Cc1ccc(/C=N/n2c(C)nc3cc(Cl)ccc3c2=O)cc1	M. avium	≥ 31.2 µg/mL

====

System: M. smegmatis
Assay: Microdilution broth resazurin assay, MIC
Format: cell-based, Mycolicibacterium smegmatis
Settings: Mycolicibacterium smegmatis, read-out: Antimycobacterial Activity MIC M. smeg.

compound_string	MIC
Cc1nc2cc(Cl)ccc2c(=O)n1/N=C/c1ccc([N+](=O)[O-])cc1	≥ 31.2 µg/mL
Cc1nc2cc(Cl)ccc2c(=O)n1/N=C/c1ccc(N(C)C)cc1	≥ 15.6 µg/mL
COc1cc(/C=N/n2c(C)nc3cc(Cl)ccc3c2=O)ccc1O	≥ 62.5 µg/mL
Cc1nc2cc(Cl)ccc2c(=O)n1/N=C/c1ccc(F)cc1	≥ 31.2 µg/mL
Cc1nc2cc(Cl)ccc2c(=O)n1Cc1cccc(O)c1	≥ 62.5 µg/mL
COc1ccccc1/C=N/n1c(C)nc2cc(Cl)ccc2c1=O	≥ 62.5 µg/mL
Cc1nc2cc(Cl)ccc2c(=O)n1/N=C/c1ccc(O)c([N+](=O)[O-])c1	31.2 µg/mL
Cc1cccc(/C=N/n2c(C)nc3cc(Cl)ccc3c2=O)c1	≥ 31.2 µg/mL
Cc1nc2cc(Cl)ccc2c(=O)n1/N=C/c1ccc(O)cc1O	≥ 62.5 µg/mL

====

Test system: HepG2
Conditions: read-out: IC50 for HepG2 [24 h]; 24 h incubation, cytotoxicity
attribute_measured: IC50 (µM)

compound_string	reported_measurement
Cc1nc2ccccc2c(=O)n1Cc1cccc(Cl)c1	507
COc1cccc(Cn2c(C)nc3ccccc3c2=O)c1	305

====

Test system: M. avium
Assay: Microdilution broth resazurin assay, MIC
Assay type: cell-based, Mycobacterium avium
Details: Mycobacterium avium, read-out: Antimycobacterial Activity MIC M. avium
attribute_measured: MIC

molecule	attribute_measured	reported_measurement
Cc1nc2cc(Cl)ccc2c(=O)n1/N=C/c1ccccc1O [Compound 35]	MIC	≥ 31.2 µg/mL
Cc1nc2cc(Cl)ccc2c(=O)n1/N=C/c1ccccn1 [Compound 29]	MIC	≥ 31.2 µg/mL
Cc1nc2cc(Cl)ccc2c(=O)n1Cc1ccc(Cl)c(Cl)c1 [Compound 24]	MIC	≥ 125 µg/mL
Cc1nc2cc(Cl)ccc2c(=O)n1Cc1cccc(C(=O)O)c1 [Compound 12]	MIC	≥ 62.5 µg/mL
Cc1nc2ccccc2c(=O)n1Cc1ccc2ccccc2c1 [Compound 8]	MIC	62.5 µg/mL

====

Test system: M. avium
Test: Microdilution broth resazurin assay, MIC
Type: cell-based, Mycobacterium avium
Settings: Mycobacterium avium, read-out: Antimycobacterial Activity MIC M. avium
attribute_measured: MIC

compound_string	reported_measurement
Cc1nc2cc(Cl)ccc2c(=O)n1/N=C/c1ccncc1	≥ 31.2 µg/mL
Cc1nc2cc(Cl)ccc2c(=O)n1/N=C/c1cccc(F)c1	≥ 62.5 µg/mL
COc1ccccc1/C=N/n1c(C)nc2cc(Cl)ccc2c1=O	≥ 62.5 µg/mL
COc1cccc(/C=N/n2c(C)nc3cc(Cl)ccc3c2=O)c1	≥ 62.5 µg/mL
Cc1nc2cc(Cl)ccc2c(=O)n1/N=C/c1ccc(F)cc1	≥ 31.2 µg/mL

====

We begin with a simple list: items and their reported Antimycobacterial Activity MIC M. aurum.
Tested on: M. aurum
Experiment: Microdilution broth resazurin assay, MIC
Assay type: cell-based, Mycolicibacterium aurum
Conditions: Table S5 matching pairs series A and B
attribute_measured: Antimycobacterial Activity MIC M. aurum

compound	experimental_target	reported_measurement
Cc1ccccc1Cn1c(C)nc2cc(Cl)ccc2c1=O	M. aurum	≥ 250 µg/mL
COc1cccc(Cn2c(C)nc3ccccc3c2=O)c1	M. aurum	125 µg/mL
CC1Nc2ccccc2C(=O)N1Cc1ccc(Cl)c(Cl)c1 (stereo not drawn)	M. aurum	≥ 250 µg/mL

====

System: Mtb H37Ra
Assay: Microdilution broth resazurin assay, MIC
Assay type: cell-based, Mycobacterium tuberculosis
Antimycobacterial Activity MIC Mtb H37Ra below 30 µg/mL gives false; Antimycobacterial Activity MIC Mtb H37Ra at or above it gives true.

compound	experimental_target	group_label
COc1cccc(Cn2c(C)nc3ccccc3c2=O)c1 [Compound 2]	Mtb H37Ra	true
COc1cccc(Cn2c(C)nc3cc(Cl)ccc3c2=O)c1 [Compound 16]	Mtb H37Ra	true
Cc1nc2ccccc2c(=O)n1Cc1ccc(Cl)cc1Cl [Compound 10]	Mtb H37Ra	true
Cc1nc2ccccc2c(=O)n1Cc1ccc2ccccc2c1 [Compound 8]	Mtb H37Ra	true
CC1Nc2ccccc2C(=O)N1Cc1ccc(Cl)c(Cl)c1 (centres unmarked) [Compound 11]	Mtb H37Ra	true
COc1ccc(Cn2c(C)nc3ccccc3c2=O)c(OC)c1 [Compound 1]	Mtb H37Ra	true
COc1ccc(Cn2c(C)nc3cc(Cl)ccc3c2=O)c(OC)c1 [Compound 15]	Mtb H37Ra	true
Cc1nc2ccccc2c(=O)n1Cc1cccc(F)c1 [Compound 4]	Mtb H37Ra	true
Cc1nc2cc(Cl)ccc2c(=O)n1Cc1ccc(Cl)c(Cl)c1 [Compound 24]	Mtb H37Ra	false
Cc1nc2ccccc2c(=O)n1Cc1cc(F)cc(C(F)(F)F)c1 [Compound 9]	Mtb H37Ra	true
Cc1nc2cc(Cl)ccc2c(=O)n1Cc1ccc2ccccc2c1 [Compound 23]	Mtb H37Ra	true
Cc1nc2cc(Cl)ccc2c(=O)n1Cc1cccc(Cl)c1 [Compound 21]	Mtb H37Ra	false
Cc1ccccc1Cn1c(C)nc2cc(Cl)ccc2c1=O [Compound 20]	Mtb H37Ra	true
Cc1nc2ccccc2c(=O)n1Cc1ccc(C(F)(F)F)cc1 [Compound 7]	Mtb H37Ra	true
Cc1nc2ccccc2c(=O)n1Cc1cccc(Cl)c1 [Compound 6]	Mtb H37Ra	true
COc1ccc(Cn2c(C)nc3cc(Cl)ccc3c2=O)cc1 [Compound 17]	Mtb H37Ra	false
Cc1nc2cc(Cl)ccc2c(=O)n1Cc1ccc(C(F)(F)F)cc1 [Compound 22]	Mtb H37Ra	true
